Every entry's value here was drawn from PubChem BioAssay (EPA / NIEHS).

read-out: E-selectin (Homo sapiens) (UniProt P16581); assay: BSK_LPS_Eselectin: BioMAP Diversity Plus: LPS Assay for Eselectin Biomarker Activity (AID 2283077); conditions: primary human HUVEC with PBMC; actives raise or lower the signal
Sequence (P16581 whole entry, looked up): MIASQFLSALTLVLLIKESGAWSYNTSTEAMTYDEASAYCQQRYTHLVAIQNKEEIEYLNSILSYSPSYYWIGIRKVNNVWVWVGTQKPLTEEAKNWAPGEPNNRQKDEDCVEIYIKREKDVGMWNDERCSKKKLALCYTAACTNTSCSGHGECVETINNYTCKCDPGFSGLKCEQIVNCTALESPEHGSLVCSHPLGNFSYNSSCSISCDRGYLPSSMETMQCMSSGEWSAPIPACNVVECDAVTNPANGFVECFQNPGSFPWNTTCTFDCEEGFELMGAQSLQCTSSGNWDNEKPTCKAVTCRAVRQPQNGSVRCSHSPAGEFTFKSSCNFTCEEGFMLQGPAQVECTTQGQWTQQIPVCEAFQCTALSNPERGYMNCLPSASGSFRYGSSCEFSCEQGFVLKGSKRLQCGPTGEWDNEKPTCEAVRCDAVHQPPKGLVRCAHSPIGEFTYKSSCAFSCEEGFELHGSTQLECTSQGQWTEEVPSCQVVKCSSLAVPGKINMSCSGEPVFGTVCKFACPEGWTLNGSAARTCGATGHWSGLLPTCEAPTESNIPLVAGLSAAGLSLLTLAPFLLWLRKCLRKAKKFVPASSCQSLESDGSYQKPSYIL
Activity calls are given as the source filed them. How the source made its calls: active means hit-call score of the fitted dose curve at least 0.9, where 1 is the maximum; inactive means score below 0.9.
Could you please pick one outcome from this set? YES for active, NO for inactive

Below, 3 molecules whose answers are already recorded.
[
  {
    "Molecule": "c1ccc(-c2cccc(-c3ccccc3)c2)cc1",
    "Category": "YES"
  },
  {
    "Molecule": "CCOP(=S)(OCC)SCS(=O)(=O)C(C)(C)C",
    "Category": "NO"
  },
  {
    "Molecule": "O=C(N[C@H]1CN2CCC1CC2)c1ccc2c(c1)OCCO2",
    "Category": "NO"
  }
]

### Prompt How did this test come out for NC(=O)CCl ?
### Response NO

### Prompt How did this test come out for [Cl][Sn]([c]1ccccc1)([c]1ccccc1)[c]1ccccc1 ?
### Response YES

### Prompt How did this test come out for CC(C)(C)c1cc([N+](=O)[O-])cc(C(C)(C)C)c1O ?
### Response YES
